Tested on: A2780 cells
measurementConditions: 24 h
pIC50: −log10 of the molar value. Numbered stars: 1 amine (or outer) side, 2 acyl side, 3 side chain; on linkers, the order of the positions; unused ones are H or OH. Square brackets hold non-standard residues; d marks the D form. Peptide text beside a SMILES is read from it. * marks the point of attachment. 5TAMRA = CN(C)c1ccc2c(c1)Oc1cc(N(C)C)ccc1C21OC(=O)c2cc(C(=O)*)ccc21; DFO = CC(=O)N(O)CCCCCNC(=O)CCC(=O)N(O)CCCCCNC(=O)CCC(=O)N(O)CCCCCN*; Cha = N[C@@H](CC1CCCCC1)C(=O)O; Suc = O=C(CCC(=O)[*:2])[*:1]

molecule	pIC50
CC(=O)N(O)CCCCCNC(=O)CCC(=O)N(O)CCCCCNC(=O)CCC(=O)N(O)CCCCCNC(=O)CCC(=O)N[C@@H](CC1CCCCC1)C(=O)N[C@H](CCCNC(=N)N)C(=O)N[C@@H](CC1CCCCC1)C(=O)N[C@@H](CCCCN)C(=O)N[C@@H](CC1CCCCC1)C(=O)N[C@H](CCCNC(=N)N)C(=O)N[C@@H](CC1CCCCC1)C(=O)N[C@@H](CCCCN)C(N)=O [DFO-1A] ({DFO-Suc}-[Cha][dR][Cha]K[Cha][dR][Cha]K-NH2)	3.97
CC(=O)N(O)CCCCCNC(=O)CCC(=O)N(O)CCCCCNC(=O)CCC(=O)N(O)CCCCCNC(=O)CCC(=O)N[C@@H](CC1CCCCC1)C(=O)N[C@H](CCCNC(=N)N)C(=O)N[C@@H](CC1CCCCC1)C(=O)N[C@@H](CCCCN)C(=O)N[C@@H](CC1CCCCC1)C(=O)N[C@H](CCCNC(=N)N)C(=O)N[C@@H](CC1CCCCC1)C(=O)N[C@@H](CCCCN)C(=O)N[C@@H](CCCCNC(=O)c1ccc2c(c1)C(=O)OC21c2ccc(N(C)C)cc2Oc2cc(N(C)C)ccc21)C(N)=O [DFO-1A-TAMRA] ({DFO-Suc}-[Cha][dR][Cha]K[Cha][dR][Cha]KK(5TAMRA)-NH2)	5.53
CC(=O)N(O)CCCCCNC(=O)CCC(=O)N(O)CCCCCNC(=O)CCC(=O)N(O)CCCCCNC(=O)CCC(=O)N[C@@H](Cc1ccccc1)C(=O)N[C@H](CCCNC(=N)N)C(=O)N[C@@H](Cc1ccccc1)C(=O)N[C@@H](CCCCN)C(=O)N[C@@H](CCCCNC(=O)c1ccc2c(c1)C(=O)OC21c2ccc(N(C)C)cc2Oc2cc(N(C)C)ccc21)C(N)=O [DFO-SS20-TAMRA] ({DFO-Suc}-F[dR]FKK(5TAMRA)-NH2)	5.10
CC(=O)N(O)CCCCCNC(=O)CCC(=O)N(O)CCCCCNC(=O)CCC(=O)N(O)CCCCCNC(=O)CCC(=O)N[C@@H](Cc1ccccc1)C(=O)N[C@H](CCCNC(=N)N)C(=O)N[C@@H](Cc1ccccc1)C(=O)N[C@@H](CCCCN)C(N)=O [DFO-SS20] ({DFO-Suc}-F[dR]FK-NH2)	4.21
